- System: Streptococcus
- PROTOCOL DETAILS: Group A Streptococcus viability loss, dose response, counter-screen for streptokinase expression inhibitor project, luminescence, BacTiterGlo (AID 1915);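 also: potency for reduction of bacterial viability or growth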
- Type: functional, organism-based
The source made the active and inactive calls.
EC50 reference

Some solved entries appear below for comparison.
* Cc1ccc(C(=O)NC2CCCC2)s1 | > 150 µM (not active)
* COc1cccc(/C=C(/C(=O)OCC(=O)NC2CCCC(C)C2C)c2ccccc2)c1 (stereo not given) | 17.3 µM (active)
* COC(=O)c1sc(-c2ccc(C(C)(C)C)cc2)cc1NC(=O)CSCC(=O)O | 12.1 µM (active)
* O=C(Nc1ccccc1)C(=O)Nc1ccc2c(c1)N(C(=O)C1CC1)CCC2 | 25.4 µM (active)

Entry `CCCCc1nc(N2CCN(C(=O)c3ccco3)CC2)c(C#N)c2c1CCCC2` under Streptococcus had EC50 of 14.4 µM (active)

Known value: Streptococcus EC50 of the compound `COC(=O)[C@@H]1[C@@H](C#N)C2(c3ccccc3-c3ccccc32)N(c2ccc(Cl)cc2)N1C#N` equals 19 µM (active)

Here `CCCCCCCC(=O)NNC(=O)c1c(O)c2ccccc2n(CCC)c1=O` was tested on Streptococcus, and its EC50 came to 4.91 µM (active)

I looked up `O=C(O)c1ccc(N2CCCCS2(=O)=O)cc1` and its EC50 for Streptococcus was > 150 µM (not active)

Log: Streptococcus, compound CCc1ccc(NC(=O)c2ccc(F)c(S(=O)(=O)NCC3COc4ccccc4O3)c2)cc1 (stereo not given) , EC50 = 18.4 µM (active)

Recorded EC50 for `c1csc(-c2csc3nc(CN4CCOCC4)nc(NCc4ccc5c(c4)OCO5)c23)c1` on Streptococcus was > 150 µM (not active)

====

- Tested on: INS1
- PROTOCOL DETAILS: beta cell apoptosis inhibitors, cytokine rescue, dose response, luminescence, retest (AID 449756);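 also: cell death triggered by IL-1 beta plus TNF-alpha plus IFN-gamma mixture; protective hits raise ATP signal compared with cytokine alone wells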
- Type: functional, cell-based
- TEST PARAMETERS: Rattus norvegicus
Active and inactive are the calls of the source.
The following compounds are listed with their measured AC50 values.

- Cc1cc(/C=C2/SC(=S)N(c3ccc([N+](=O)[O-])cc3)C2=O)c(C)n1-c1cccnc1: 0.862 µM (active)
- Cc1ccc(S(=O)(=O)Nc2cc(Cl)c(O)c3ncccc23)cc1: 2.4 µM (active)
- O=C(Nc1ccc(F)cc1F)N1CCCN(CCOc2ccccc2)CC1: 13.3 µM (active)

Briefly, AC50 measured for `Cc1ccc(C(=O)Nc2nc(-c3ccccn3)cs2)s1` : 1.67 µM (active)

For record `CCn1c(-c2ccccc2)c(C(=O)CCl)c2ccccc21` the listed AC50 is 7.82 µM (active)

Per the record, C/C(=N\N1C(=O)c2ccccc2NC1c1ccco1)c1ccccc1O (stereo unspecified) has AC50 of 2.21 µM (active)

====

- TARGET OR TEST SYSTEM: Cytochrome P450 3A4 (Homo sapiens, UniProt P08684);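 also: CYP3A4 tested as one member of a cytochrome P450 panel screen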
- Sequence (P08684 whole entry): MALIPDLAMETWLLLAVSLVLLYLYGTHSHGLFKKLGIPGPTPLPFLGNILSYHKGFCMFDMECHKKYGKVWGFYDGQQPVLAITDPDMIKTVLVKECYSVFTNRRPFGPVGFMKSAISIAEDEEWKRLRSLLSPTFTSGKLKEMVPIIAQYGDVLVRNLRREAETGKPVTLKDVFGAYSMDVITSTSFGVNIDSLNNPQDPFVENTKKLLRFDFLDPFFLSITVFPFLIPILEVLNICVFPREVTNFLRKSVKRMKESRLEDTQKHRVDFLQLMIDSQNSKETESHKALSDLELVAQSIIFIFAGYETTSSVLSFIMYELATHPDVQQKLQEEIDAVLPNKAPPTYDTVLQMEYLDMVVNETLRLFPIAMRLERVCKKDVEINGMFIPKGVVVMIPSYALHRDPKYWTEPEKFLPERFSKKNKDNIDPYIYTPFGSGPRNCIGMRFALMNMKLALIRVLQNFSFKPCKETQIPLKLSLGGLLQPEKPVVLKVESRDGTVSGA
RECORDED ENDPOINT: AC50

The examples below pair each entry with its known result.
* C=CCOc1ccc2cccc(/C=N/NC(=O)c3cc4cc([N+](=O)[O-])ccc4s3)c2c1 | 2.51 µM (inconclusive)
* CC1(C)CC(=O)C2=C(C1)N(Cc1ccccc1)C(=O)C2(O)C(F)(F)F (configuration not stated) | 20 µM (inconclusive)
* CC(C)=C1C(=O)C(c2ccccc2)=C2CN3C(=O)N(CCc4ccccc4)C(=O)[C@]3(Cc3ccccc3)[C@H]21 | 5.01 µM (inconclusive)
* COc1ncc2nc(-c3cc(F)cc(F)c3)c(=O)n(C3CC3)c2n1 | 12.6 µM (inconclusive)
* O=C(c1ccccc1F)c1cn(CC(=O)N2CCOCC2)c2ccccc12 | 17.8 µM (inconclusive)
* N=C(N)N/N=C(/c1ccccc1)c1ccc(O)cc1O | 3.98 µM (inconclusive)

Notebook: `Cc1ccccc1C(=N)c1ccccc1Cc1cccc2ccccc12` , AC50 read as 1.58 µM (inconclusive)

Record `COc1ccccc1CN1CC2(CCN(C(=O)c3ccncc3)CC2)C1` , field AC50: 7.94 µM (inconclusive)

Input `COc1cc2c(cc1OC)C(CCN)=NCC2` . Output AC50: 3.98 µM (inconclusive)

# AC50 of `Cn1c(=O)c2c(nc(N3CCN(c4ccccn4)CC3)n2Cc2ccc(Cl)cc2Cl)n(C)c1=O` = 2.24 µM (inconclusive)

GET /value?item= COc1cccc(/C=N\NC(=O)C2C(=O)NCC2c2ccccc2)c1O (configuration not stated) &field=AC50 returns 25.1 µM (inconclusive)

Value of measured AC50 for the entry `CN(/C=C/C1=[N+](C)c2ccccc2C1(C)C)c1ccccc1` : 31.6 µM (inconclusive)

Notebook: `O=C(c1coc2ccccc2c1=O)N1CCN(c2cccc(C(F)(F)F)c2)CC1` , AC50 read as 22.4 µM (inconclusive)

Reported AC50 ( `Cc1c(/C=N/NC(=O)c2ccc3c(c2)OCO3)cnn1C` ) = 22.4 µM (inconclusive)

response.value for `c1ccc(-c2nc(NCc3cccnc3)c3ccccc3n2)cc1` (field: AC50) = 1 µM (inconclusive)

Recorded AC50 (compound `O=C(Nc1cccc(Cl)c1)Nn1cnnc1` ): 3.16 µM (inconclusive)

Entry S=C1N(c2ccccc2)C(c2ccc(Cl)cc2)N2CCCN12 (configuration not stated) — recorded AC50 = 12.6 µM (inconclusive)
